Measured values drawn from paper PMC10108347 for this set.

Listing: remaining activity at 0.1 µM of selected compounds
target: XIAP (Homo sapiens); experiment: Immunoblotting (western blot) quantification of XIAP levels in MM.1S cells; settings: MM1.S, 16 h, read-out: %remaining protein XIAP
Sequence (P98170 whole entry): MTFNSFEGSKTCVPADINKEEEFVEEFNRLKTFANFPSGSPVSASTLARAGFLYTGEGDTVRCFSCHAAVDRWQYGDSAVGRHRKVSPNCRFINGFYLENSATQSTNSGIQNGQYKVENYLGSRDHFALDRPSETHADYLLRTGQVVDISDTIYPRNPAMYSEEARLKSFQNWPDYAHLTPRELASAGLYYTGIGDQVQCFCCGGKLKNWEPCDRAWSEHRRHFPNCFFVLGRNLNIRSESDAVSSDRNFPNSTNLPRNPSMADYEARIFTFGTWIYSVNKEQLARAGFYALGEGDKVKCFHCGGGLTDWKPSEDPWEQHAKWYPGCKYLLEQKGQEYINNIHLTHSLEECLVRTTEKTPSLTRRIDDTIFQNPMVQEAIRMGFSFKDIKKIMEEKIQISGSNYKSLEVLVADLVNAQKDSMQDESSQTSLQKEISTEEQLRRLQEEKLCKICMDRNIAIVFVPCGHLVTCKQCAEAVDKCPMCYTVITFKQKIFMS
Note: unit % is implicit; provide only the numeric part.

Some entries whose results are on file:
Request: Quick one: remaining activity at 0.1 µM for "CN[C@@H](C)C(=O)N[C@H](C(=O)N1C[C@@H](Oc2cccc(OCCOCCOCCOCCOc3cc(-c4scnc4C)ccc3CNC(=O)[C@@H]3C[C@@H](O)CN3C(=O)[C@H](C(C)C)N3Cc4ccccc4C3=O)c2)C[C@H]1C(=O)N[C@@H]1CCCc2ccccc21)C1CCCCC1" ?
Result: 2

Request: Quick one: remaining activity at 0.1 µM for CN[C@@H](C)C(=O)N[C@H](C(=O)N1C[C@@H](Oc2cccc(OCCOCCCCCCOCCCCCCNc3cccc4c3C(=O)N(C3CCC(=O)NC3=O)C4=O)c2)C[C@H]1C(=O)N[C@@H]1CCCc2ccccc21)C1CCCCC1 (stereo partly shown) ?
Result: 2

Request: Quick one: remaining activity at 0.1 µM for "CN[C@@H](C)C(=O)N[C@H](C(=O)N1C[C@@H](Oc2cccc(OCCCCCCOCCCCCOCCCCCOc3cc(-c4scnc4C)ccc3CNC(=O)[C@@H]3C[C@@H](O)CN3C(=O)[C@H](C(C)C)N3Cc4ccccc4C3=O)c2)C[C@H]1C(=O)N[C@@H]1CCCc2ccccc21)C1CCCCC1" ?
Result: 6

Now consider the entry below.
Request: Quick one: remaining activity at 0.1 µM for CN[C@@H](C)C(=O)N[C@H](C(=O)N1C[C@@H](Oc2cccc(OCCCCCOCCCCCOCCCCCCNc3cccc4c3C(=O)N(C3CCC(=O)NC3=O)C4=O)c2)C[C@H]1C(=O)N[C@@H]1CCCc2ccccc21)C1CCCCC1 (stereo partly shown) ?
Result: 2
